compounds and their reported Bliss excess
Test system: OV-90 (Ovarian Carcinoma);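 also: after 72 h of two-drug dosing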
Assay: Bliss excess, mean over the matrix (fraction); higher = more synergy
endpoint: Bliss excess

CC1(C)CCC(CN2CCN(c3ccc(C(=O)NS(=O)(=O)c4ccc(NCC5CCOCC5)c([N+](=O)[O-])c4)c(Oc4cnc5[nH]ccc5c4)c3)CC2)=C(c2ccc(Cl)cc2)C1 [Venetoclax] + C1CN(CCC1(C(=O)N[C@@H](CCO)C2=CC=C(C=C2)Cl)N)C3=NC=NC4=C3C=CN4 [Capivasertib] (first compound max 1 µM, 7x7, partner max 3 µM) :: -0.0796
Cn1cnc2c(F)c(Nc3ccc(Br)cc3Cl)c(C(=O)NOCCO)cc21 [Selumetinib] + C[C@@H]1COCCN1C2=NC(=NC(=C2)C3(CC3)[S@](=N)(=O)C)C4=C5C=CNC5=NC=C4 [AZD6738] (first compound max 10 µM, 7x7, partner max 10 µM) :: 0.0049
CC1(C)CCC(CN2CCN(c3ccc(C(=O)NS(=O)(=O)c4ccc(NCC5CCOCC5)c([N+](=O)[O-])c4)c(Oc4cnc5[nH]ccc5c4)c3)CC2)=C(c2ccc(Cl)cc2)C1 [Venetoclax] + CS(=O)(=O)CCNCc1ccc(-c2ccc3ncnc(Nc4ccc(OCc5cccc(F)c5)c(Cl)c4)c3c2)o1 [Lapatinib] (first compound max 1 µM, 7x7, partner max 10 µM) :: -0.0522
